metric_name: melting point

Examples with answers:
compound	melting point
CCC(CC)C(c1ccnn1-c1ccccc1)N(C)S(=O)(=O)c1cc(Cl)c(Cl)s1 (stereo not drawn)	99 to 100 °C
CC(C)(C)[Si](Oc1ccc(C=O)cc1)(c1ccccc1)c1ccccc1	103 to 105 °C

### Prompt Item under review: O=C(NCCN1CCNCC1)c1cccc(C=CC(=O)N2CCc3c([nH]c4ccccc34)C2c2ccc3c(c2)OCO3)c1 (stereo not drawn) . Reported melting point?
### Response 138 to 140 °C

### Prompt Need melting point, item COC(=O)c1cc(CCc2cc(OC)ccc2OC)ccc1NC(C)=O
### Response 81 to 83 °C

### Prompt Using the record for O=C(O)c1cccc2c1CC(c1csc(-c3ccncc3)n1)C(=O)N2 (stereo not drawn) , report its melting point.
### Response > 250 °C

### Prompt Item under review: N#CCCCCCCNc1ccc(O)cc1 . Reported melting point?
### Response 75 to 76 °C

### Prompt For the compound Cc1ccsc1C(=O)Nc1ccc(I)cc1 , what melting point is on record?
### Response 141 to 142 °C

### Prompt Need melting point of O=C(O)c1c([N+](=O)[O-])ccc2c1OCCO2 , thanks.
### Response 188 °C
